assay-target: glucagon receptor (human, UniProt P47871 26-477)
Sequence (P47871 26-477): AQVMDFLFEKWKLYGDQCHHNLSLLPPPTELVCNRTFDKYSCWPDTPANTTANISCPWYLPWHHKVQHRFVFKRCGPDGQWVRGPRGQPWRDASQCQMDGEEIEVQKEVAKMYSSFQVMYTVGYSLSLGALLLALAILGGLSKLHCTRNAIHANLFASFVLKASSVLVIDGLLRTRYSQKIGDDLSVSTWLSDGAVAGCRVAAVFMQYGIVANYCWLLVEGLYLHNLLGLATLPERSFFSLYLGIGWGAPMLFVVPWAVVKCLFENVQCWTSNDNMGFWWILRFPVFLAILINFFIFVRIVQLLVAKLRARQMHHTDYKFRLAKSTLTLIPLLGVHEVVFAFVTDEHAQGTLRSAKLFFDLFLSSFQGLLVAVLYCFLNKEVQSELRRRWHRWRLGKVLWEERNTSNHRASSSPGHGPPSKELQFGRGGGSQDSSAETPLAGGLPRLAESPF
assay-protocol: cell-based or functional assay
*1 amine or outer side, *2 acyl side, *3 side chain or, on linkers, in order; H or OH if unused. Where no end group is shown, it is not given here. Side-chain parts run from the residue outwards. The star is where a group is joined. C18 diacid = O=C(O)CCCCCCCCCCCCCCCCC(=O)*; γGlu = O=C(O)[C@H](CCC(=O)[*:2])N[*:1]; AEEA = NCCOCCOCC(=O)O
property: Assay (I) Glucagon [EC50] (nM)

binder	Assay (I) Glucagon [EC50], nM
HSQGTFTSDYSKYLDARRAQDFVK([γGlu-γGlu-AEEA-AEEA-γGlu-C18 diacid])WLLST	0.049
HSQGTFTSDYSRYLDTRRAQDFVK([γGlu-γGlu-AEEA-AEEA-γGlu-C18 diacid])WLLNT	0.031
HSHGTFTSDYSKYLDSRRAKDFVK([γGlu-γGlu-AEEA-AEEA-γGlu-C18 diacid])WLLST	0.249

A. HSQGTFTSDYSKYLESRRAQDFVK([γGlu-γGlu-AEEA-γGlu-C18 diacid])WLLST
B. HSQGTFTSDYSKYLDTRRAQEFVK([γGlu-γGlu-AEEA-AEEA-γGlu-C18 diacid])WLLST
For the pair A and B , which entry has the numerically smaller recorded Assay (I) Glucagon [EC50]? Write down the label attached to your selection.
B
